Taken from paper PMC9612427.

TARGET OF ASSAY: P-glycoprotein (MDR1) (Homo sapiens, UniProt P08183)
Sequence (P08183 whole entry): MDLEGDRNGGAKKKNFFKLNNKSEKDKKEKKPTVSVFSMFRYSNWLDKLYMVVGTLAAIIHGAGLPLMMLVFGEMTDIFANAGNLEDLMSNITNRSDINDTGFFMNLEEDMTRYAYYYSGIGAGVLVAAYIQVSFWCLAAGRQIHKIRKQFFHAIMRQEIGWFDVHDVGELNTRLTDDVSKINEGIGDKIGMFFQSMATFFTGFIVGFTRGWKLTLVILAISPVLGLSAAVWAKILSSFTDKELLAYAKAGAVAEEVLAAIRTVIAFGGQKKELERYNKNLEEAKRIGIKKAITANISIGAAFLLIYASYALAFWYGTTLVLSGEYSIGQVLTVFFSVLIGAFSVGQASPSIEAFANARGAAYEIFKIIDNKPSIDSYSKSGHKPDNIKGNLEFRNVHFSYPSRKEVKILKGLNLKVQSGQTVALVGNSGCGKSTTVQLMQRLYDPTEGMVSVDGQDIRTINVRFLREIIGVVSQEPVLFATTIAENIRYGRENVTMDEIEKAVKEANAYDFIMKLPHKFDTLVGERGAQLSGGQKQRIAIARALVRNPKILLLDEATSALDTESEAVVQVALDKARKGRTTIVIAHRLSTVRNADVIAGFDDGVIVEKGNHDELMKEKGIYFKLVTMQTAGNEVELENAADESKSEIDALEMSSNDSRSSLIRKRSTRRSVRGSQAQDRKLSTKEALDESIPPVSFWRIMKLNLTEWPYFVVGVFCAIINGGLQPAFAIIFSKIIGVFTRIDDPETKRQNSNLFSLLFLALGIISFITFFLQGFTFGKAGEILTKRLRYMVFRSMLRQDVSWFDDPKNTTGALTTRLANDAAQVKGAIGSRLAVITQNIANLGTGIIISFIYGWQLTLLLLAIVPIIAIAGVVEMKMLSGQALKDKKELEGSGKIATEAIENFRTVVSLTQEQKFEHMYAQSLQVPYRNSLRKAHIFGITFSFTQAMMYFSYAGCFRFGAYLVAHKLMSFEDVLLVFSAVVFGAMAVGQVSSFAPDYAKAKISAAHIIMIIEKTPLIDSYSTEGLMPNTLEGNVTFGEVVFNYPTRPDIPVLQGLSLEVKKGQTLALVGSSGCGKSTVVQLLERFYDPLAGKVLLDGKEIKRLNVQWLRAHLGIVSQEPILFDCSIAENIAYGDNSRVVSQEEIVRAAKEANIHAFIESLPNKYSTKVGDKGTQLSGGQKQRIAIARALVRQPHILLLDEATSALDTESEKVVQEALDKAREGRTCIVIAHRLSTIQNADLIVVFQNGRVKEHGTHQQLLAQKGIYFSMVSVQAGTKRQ
METHOD NOTES: MDR1-MDCK transwell assay
MEASUREMENT PARAMETERS: human, MDCK-MDR1
OBSERVED PROPERTY: Papp at 90 min, 10 μM (×10⁻⁶ cm/s)
Write the answer as a number in ×10⁻⁶ cm/s, unit excluded.

Endpoint output: Papp at 90 min, 10 μM of CC(C)(C)c1ccc(C(O)CCCN2CCC(C(O)(c3ccccc3)c3ccccc3)CC2)cc1 (stereo not shown) . Value? 1.2

====

METHOD NOTES: BBB penetrance: brain and serum drug levels after single IV injection
Format: in vivo, mice
MEASUREMENT PARAMETERS: mouse, brain and serum, iv, 25 mg/kg
OBSERVED PROPERTY: Kp at 60 min

Endpoint output: Kp at 60 min of CC(C)(C)c1nc(-c2cccc(NS(=O)(=O)c3c(F)cccc3F)c2F)c(-c2ccnc(N)n2)s1 [dabrafenib] . Value? 0.0014 to 0.0069

Endpoint output: Kp at 60 min of COC(=O)N[C@@H](C)CNc1nccc(-c2cn(C(C)C)nc2-c2cc(Cl)cc(NS(C)(=O)=O)c2F)n1 [encorafenib] . Value? 0.0014 to 0.0069

Endpoint output: Kp at 60 min of CCCS(=O)(=O)Nc1ccc(F)c(C(=O)c2c[nH]c3ncc(Cl)cc23)c1F [PLX4720] . Value? 0.0014 to 0.0069

====

System: cell lines with WT BRAF
METHOD NOTES: 72 h cell viability assay, cell lines with WT BRAF
Format: cell-based
MEASUREMENT PARAMETERS: read-out: IC50, cell lines with WT BRAF
OBSERVED PROPERTY: IC50

Endpoint output: IC50 of CCCS(=O)(=O)Nc1cc(Cl)cc(-c2nc(C(C)(C)C)sc2-c2ccnc(N)n2)c1F [everafenib] . Value? > 1000 nM
